Tested on: SF-295
Test: NCI tumour cell line growth inhibition, 48 h
The source made the active and inactive calls. Rule as the data show it: active = GI50 up to about 1.1 µM and inactive = higher.
Use one of these outcomes when replying: y for active, n for inactive

>>> qualitative_label("C=CCOC(=O)N1c2ccc(O)cc2[C@@]23O[C@@]24[C@@H]1C#C/C=C\\C#C[C@]3(O)C(OC)(OC)C[C@@H]4C")
"n"
>>> qualitative_label("c1cc(N(CCn2cccn2)CCn2cccn2)cc(N(CCn2cccn2)CCn2cccn2)c1")
"n"
>>> qualitative_label("OCCNC1c2cc(Cl)ccc2-c2c(Cl)cc(Cl)cc21 (configuration not stated)")
"n"

// outcome(item) with item = "O=C(/C=C/c1ccc(Cl)c(Cl)c1)c1ccccc1Cl"
n

Which outcome was entered for the molecule "O=C1c2ccccc2-c2[nH]c3cn[nH]c(=O)c3c21" in this test?
n

What call does the record list for c1ccc2c(c1)SP1Sc3ccccc3P21 (configuration not stated) ?
n
